Cited source for all entries: paper PMC12529927

- experimental_system: AGO2 (loaded with guide RNA) (Homo sapiens, UniProt Q9UKV8 1-859)
- Sequence (Q9UKV8 whole entry): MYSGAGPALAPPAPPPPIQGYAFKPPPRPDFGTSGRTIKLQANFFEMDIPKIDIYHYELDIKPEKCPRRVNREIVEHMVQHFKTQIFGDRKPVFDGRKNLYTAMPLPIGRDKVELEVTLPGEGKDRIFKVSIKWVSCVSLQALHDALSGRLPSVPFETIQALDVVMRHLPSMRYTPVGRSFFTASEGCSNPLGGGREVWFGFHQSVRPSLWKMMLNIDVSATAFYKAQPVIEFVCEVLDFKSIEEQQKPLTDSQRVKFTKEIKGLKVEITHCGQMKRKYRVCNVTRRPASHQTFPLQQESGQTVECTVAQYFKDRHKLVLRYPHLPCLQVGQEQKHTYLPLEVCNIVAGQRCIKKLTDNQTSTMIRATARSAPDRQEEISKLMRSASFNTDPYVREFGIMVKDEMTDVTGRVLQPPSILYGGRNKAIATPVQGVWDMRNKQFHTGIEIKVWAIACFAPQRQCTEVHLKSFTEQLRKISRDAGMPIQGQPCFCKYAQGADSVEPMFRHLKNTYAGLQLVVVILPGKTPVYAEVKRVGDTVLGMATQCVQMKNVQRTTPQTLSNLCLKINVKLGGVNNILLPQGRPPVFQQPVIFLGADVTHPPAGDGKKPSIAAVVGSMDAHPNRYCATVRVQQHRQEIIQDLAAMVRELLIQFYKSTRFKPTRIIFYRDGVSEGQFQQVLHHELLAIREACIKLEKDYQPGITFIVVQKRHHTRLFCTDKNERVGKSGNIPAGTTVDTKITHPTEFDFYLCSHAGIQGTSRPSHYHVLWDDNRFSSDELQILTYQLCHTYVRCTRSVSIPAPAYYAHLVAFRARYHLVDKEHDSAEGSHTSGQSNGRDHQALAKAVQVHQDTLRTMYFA
- test_description: filter binding; upper bound, ~5 pM; 18 mM HEPES pH 7.4, 100 mM K-acetate, 1 mM Mg-acetate, 0.01% IGEPAL, 0.01 mg/mL yeast tRNA, 5 mM DTT, BSA, glycerol, 37 C, 4 h, 1-5 pM target; kinetics with 10
- reported_conditions: protein: recombinant; tags: 3xFLAG-SUMOEu1 (removed by SENPEuB cleavage); label: 32P target; g11-23 and g1-8 paired, offset +2
pKd: −log10 of the molar value.
property: pKd

-- ask What value of pKd has been recorded for this entry: miR-155 mut / m11_23|+2|m1_8 (mixed, 5'-phosphate guide) RNA 1: UUCGUGCUAAUCGUGAUAGGGGU RNA 2: UUUUUUACCCCUAUCACGACCUUAGCACGAAUUUUUUUUU
-- reply > 11.30
